Listed below: melting point values for each entry.

- chemSmiles: "CC(C)n1nc(-c2cc(C(N)=O)cnc2-c2ccccc2)ccc1=O"
  melting point: "229 to 230 °C"
- chemSmiles: "CC(C)n1nc(-c2cc(C(=O)NCc3ccccc3)cnc2-c2ccccc2)ccc1=O"
  melting point: "205 to 206 °C"
- chemSmiles: "CC(C)n1nc(-c2cc(C(=O)N3CCOCC3)cnc2-c2ccccc2)ccc1=O"
  melting point: "132 to 133 °C"
- chemSmiles: "CC(C)n1nc(-c2cc(C#N)cnc2-c2ccccc2)ccc1=O"
  melting point: "133 to 135 °C"
- chemSmiles: "CC(C)n1nc(-c2ccc(OCC(N)=O)nc2-c2ccccc2)ccc1=O"
  melting point: "137 to 138 °C"
- chemSmiles: "CC(C)n1nc(-c2cc(-c3ccn[nH]3)cnc2-c2ccccc2)ccc1=O"
  melting point: "212 to 213 °C"
- chemSmiles: "CC(C)n1nc(-c2cc(C#N)c(Cl)nc2-c2ccccc2)ccc1=O"
  melting point: "191 to 192 °C"
- chemSmiles: "CC(C)n1nc(-c2cc(-c3ncnn3C)c(N)nc2-c2ccccc2)ccc1=O"
  melting point: "253 to 254 °C"
- chemSmiles: "COc1nc(-c2ccccc2)c(-c2ccc(=O)n(C(C)C)n2)cc1C#N"
  melting point: "187 to 189 °C"

# credit: patent US20040067955A1
